# System: SNB-19 CNS
# Assay Explanation: NCI tumour cell line growth inhibition, 48 h
Observation Type: TGI

>  <Molecule>
O=C(/C=C/c1ccc(OCc2ccccc2)cc1)NCc1ccc(C(=O)NCCc2c[nH]c3ccccc23)cc1

>  <Observed Measurement>
29.9 µM

$$$$
>  <Molecule>
O=C1c2c(ccc3c2CCC3)CC1Cc1ccc2c(c1)CCC2 (stereo not drawn)

>  <Observed Measurement>
> 100 µM

$$$$
>  <Molecule>
CC(C)(C)c1cc(C(=O)Nc2ccc(C(=O)NCCN)cc2)cc(C(C)(C)C)c1

>  <Observed Measurement>
16.6 µM

$$$$
>  <Molecule>
COC(=O)c1cccc2c3ccccc3c3ccccc3c12

>  <Observed Measurement>
> 100 µM

$$$$
>  <Molecule>
C=C1[C@H]2O[C@H]2[C@@H](OC(C)=O)[C@@]2(C)[C@@H](OC(C)=O)C[C@@H](OC(=O)CCC)[C@@](C)(O)[C@@H]2[C@@H](OC(C)=O)[C@]2(O)[C@@H](C)C(=O)O[C@H]2[C@H]1Cl

>  <Observed Measurement>
> 100 µM

$$$$
>  <Molecule>
O=C(O)[C@@H]1OCCOCCO[C@@H](C(=O)O)[C@H](C(=O)O)OCCOCCO[C@H]1C(=O)O

>  <Observed Measurement>
> 100 µM

$$$$
>  <Molecule>
CCCOc1cc2ccccc2cc1C(=O)Nc1nc(NC)c2c(ccc3nccc32)[nH]1

>  <Observed Measurement>
2.23 µM

$$$$
>  <Molecule>
COC1=N[C@H](C(C)C)C(OC)=N[C@H]1Cc1ccc(C[C@@H]2N=C(OC)[C@@H](C(C)C)N=C2OC)s1

>  <Observed Measurement>
> 100 µM

$$$$
>  <Molecule>
N#Cc1cnc2cc(OC[C@@H](O)CO)c(NC(=O)C3CCCC3)cc2c1Nc1ccc(OCc2cccc(F)c2)c(Cl)c1

>  <Observed Measurement>
> 50 µM

$$$$
>  <Molecule>
CCc1cccc(C(C)C)c1NC(=O)CCl

>  <Observed Measurement>
> 100 µM

$$$$
>  <Molecule>
C1OC1CN1CCN(CC2CO2)CC1 (stereo not drawn)

>  <Observed Measurement>
> 100 µM

$$$$
>  <Molecule>
C[C@]12Cc3cnc(-c4ccccc4)nc3C[C@@H]1CC[C@@H]1[C@@H]2CC[C@@]2(C)[C@H]1CC[C@]2(C)O

>  <Observed Measurement>
44.3 µM

$$$$
>  <Molecule>
c1ccc2c(c1)nc1n2CSCC1

>  <Observed Measurement>
> 100 µM

$$$$
>  <Molecule>
CNC(=O)N(CCC#N)CCN(C(=O)N(C)C)c1ccccc1

>  <Observed Measurement>
> 100 µM

$$$$
>  <Molecule>
O=C(Cc1nc2sc3c(c2c(=O)[nH]1)CCCC3)Nc1ccccc1

>  <Observed Measurement>
> 100 µM

$$$$
>  <Molecule>
O=C1c2c(O)cc(O)cc2C(C2OC(CO)C(O)C(O)C2O)c2cc(CO)cc(O)c21 (stereo not drawn)

>  <Observed Measurement>
> 100 µM

$$$$
>  <Molecule>
N#COc1ccc(Oc2ccccc2)cc1

>  <Observed Measurement>
> 100 µM

$$$$
>  <Molecule>
NCCCCCNc1noc(Cc2c[nH]c3cc(Br)ccc23)n1

>  <Observed Measurement>
25.6 µM

$$$$
>  <Molecule>
COc1cc2c(oc(=O)c3c4occc4cc(OC)c23)c2cccc(OCc3ccccc3)c12

>  <Observed Measurement>
> 100 µM

$$$$
>  <Molecule>
Cc1cc(S(=O)(=O)Nc2nnc3c4ccccc4cnn23)c(S)cc1Cl

>  <Observed Measurement>
> 88.9 µM

$$$$
>  <Molecule>
Cc1c(O)c(OC2OC(CO)C(O)C(O)C2O)cc2c1C=C[C@@H]1[C@@]2(C)C(=O)C[C@]2(C)[C@@H]([C@@](C)(O)C(O)/C=C/C(C)(C)O)[C@H](O)C[C@@]12C (stereo partly drawn)

>  <Observed Measurement>
> 100 µM

$$$$
>  <Molecule>
CCCCCCCCCCCCCCCCCCNCc1ccc(Cl)cc1

>  <Observed Measurement>
12 µM

$$$$
>  <Molecule>
C=C(Cl)/C(=C\Cl)CCC(Cl)C(C)C (stereo not drawn)

>  <Observed Measurement>
> 100 µM

$$$$
>  <Molecule>
CN(CCNC(=O)c1c[nH]c2c1ccc1ccccc12)CCNC(=O)c1c[nH]c2c1ccc1ccccc12

>  <Observed Measurement>
6.23 µM

$$$$
>  <Molecule>
c1ccc2c(c1)nn1c3ccc4nonc4c3[n-][n+]21

>  <Observed Measurement>
> 100 µM

$$$$
>  <Molecule>
CN(CCO)Cc1ncccc1O

>  <Observed Measurement>
> 100 µM

$$$$
>  <Molecule>
CNCCN[C@@H]1c2cc3c(cc2[C@@H](c2cc(OC)c(O)c(OC)c2)[C@H]2C(=O)OC[C@@H]21)OCO3

>  <Observed Measurement>
11.9 µM

$$$$
>  <Molecule>
N#CCCN(CCC#N)c1ccc(C(N=Nc2ccc(Cl)cc2)=Nc2ccccc2)cc1

>  <Observed Measurement>
25 µM

$$$$
>  <Molecule>
O=C1CCCC/C1=C1/SC(=Nc2ccccc2)C(=Nc2ccccc2)N1c1ccccc1

>  <Observed Measurement>
> 100 µM

$$$$
>  <Molecule>
COC1CC(OC2CCC3(C)C(=CCC4C3C(OC(C)=O)C(OC(=O)CC(C)C)C3(C)C(C(C)=O)CCC43O)C2)OC(C)C1OC1CC(OC)C(OC2CC(OC)C(OC3OC(C)C(O)C(OC)C3O)C(C)O2)C(C)O1 (stereo not drawn)

>  <Observed Measurement>
> 100 µM

$$$$
>  <Molecule>
COc1ccc(C2C(C#N)=C(S)N(C3OC(COC(C)=O)C(OC(C)=O)C(OC(C)=O)C3OC(C)=O)C(C)=C2C(C)=O)cc1 (stereo not drawn)

>  <Observed Measurement>
> 100 µM

$$$$
>  <Molecule>
O=S(=O)(NCCNc1nccc(-c2c(-c3ccc(F)c(O)c3)nc3sccn23)n1)c1ccc(Cl)cc1

>  <Observed Measurement>
11.3 µM

$$$$
>  <Molecule>
CCOC(=O)Nc1nc2ccccc2[nH]1

>  <Observed Measurement>
> 100 µM

$$$$
>  <Molecule>
N#Cc1c(-c2ccccc2)cc(-c2ccc(N)cc2)[nH]c1=O

>  <Observed Measurement>
> 100 µM

$$$$
>  <Molecule>
NC(=O)CN1CC(C2=C(O)CN(CC(N)=O)C2=O)=CC1=O

>  <Observed Measurement>
> 100 µM

$$$$
>  <Molecule>
COc1ccc(/C=C2\C[C@H]3[C@@H]4CC=C5C[C@@H](OC(C)=O)CC[C@]5(C)[C@H]4CC[C@]3(C)\C2=N\O)cc1OC

>  <Observed Measurement>
> 100 µM

$$$$
>  <Molecule>
Cc1c(O)c(OC2OC(CO)C(O)C(O)C2O)cc2c1CC[C@@H]1C2(C)C(=O)C[C@]2(C)[C@@H]([C@@](C)(O)C3CCC(C)(C)O3)[C@H](O)C[C@@]12C (stereo partly drawn)

>  <Observed Measurement>
> 100 µM

$$$$
>  <Molecule>
O=[N+]([O-])c1cccc(-c2nc(-c3ccc(Cl)cc3Cl)cn2-c2ccccc2)c1

>  <Observed Measurement>
> 18.2 µM

$$$$
